src = patent US20240217989A1

Listing of entries alongside the reported pIC50.
- system.tested: DGKα (Homo sapiens)
- Construct: His; purchased Signal Chem D21-10BH
- Sequence (P23743 whole entry): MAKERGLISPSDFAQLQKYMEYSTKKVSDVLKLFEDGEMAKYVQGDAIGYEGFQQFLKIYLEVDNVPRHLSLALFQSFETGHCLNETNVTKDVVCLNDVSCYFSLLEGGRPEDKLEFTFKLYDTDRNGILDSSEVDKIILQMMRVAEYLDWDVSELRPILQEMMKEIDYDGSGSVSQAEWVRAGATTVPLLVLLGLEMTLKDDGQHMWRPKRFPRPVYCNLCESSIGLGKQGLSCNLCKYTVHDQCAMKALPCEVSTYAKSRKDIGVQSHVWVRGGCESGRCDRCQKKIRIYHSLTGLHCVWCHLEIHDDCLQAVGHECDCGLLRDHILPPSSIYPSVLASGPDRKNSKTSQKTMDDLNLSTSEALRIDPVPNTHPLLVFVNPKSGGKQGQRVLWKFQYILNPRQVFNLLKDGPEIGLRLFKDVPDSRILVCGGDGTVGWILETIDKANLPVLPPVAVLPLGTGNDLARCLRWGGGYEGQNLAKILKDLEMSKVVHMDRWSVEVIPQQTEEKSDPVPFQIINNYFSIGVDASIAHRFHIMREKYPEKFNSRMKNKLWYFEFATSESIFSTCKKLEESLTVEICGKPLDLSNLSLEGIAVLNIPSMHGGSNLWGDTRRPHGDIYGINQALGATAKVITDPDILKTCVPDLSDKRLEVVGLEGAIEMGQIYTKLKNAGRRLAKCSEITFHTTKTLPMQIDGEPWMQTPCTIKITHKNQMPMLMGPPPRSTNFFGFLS
- experiment.summary: In vitro DGKα inhibition assay (ADP-Glo)
- Format: biochemical
- study.conditions: His-tagged human recombinant enzyme; 0.1 nM DGKα, 50 μM ATP, 20 μM DLG; 90 minute incubation; ADP-Glo luminescence
pIC50: −log10 of the molar value.

Worked cases, answers included:
F/C(=C\c1ccc(OC2CCCCC2)c(C(F)(F)F)c1N1CCCC2(CCN(CC3CC3)CC2)C1)c1nccc(-c2ccnnc2)n1
≥ 7.70
CCN1CCC2(CCCN(c3c(/C=C(\F)c4cccc(-c5ccnnc5)n4)ccc(Oc4ncccc4F)c3C(F)(F)F)C2)CC1
≥ 7.70
F/C(=C\c1ccc(Oc2ccccc2)c(C(F)(F)F)c1N1CCOC2(CCN(CC3CC3)CC2)C1)c1nccc(-c2ccnnc2)n1
6.70 to 7.70
COCCN1CCC2(CC1)CN(c1c(/C=C(\F)c3cccc(-c4ccnnc4)n3)ccc(Oc3ccccc3)c1C(F)(F)F)CCO2
≥ 7.70

**Q:** Any idea what pIC50 came out for `COc1cc(F)ccc1Oc1ccc(/C=C(\F)c2nncc(N3CCC(F)(F)C3)n2)c(N2CCC[C@@H](CN)C2)c1Cl` on DGKα (Homo sapiens)?
**A:** ≥ 7.70

**Q:** Any idea what pIC50 came out for `[2H]c1c([2H])c([2H])c(Oc2ccc(/C=C(\F)c3cncc(N4CCC(F)(F)C4)n3)c(N3CCCC4(CCN(CC)CC4)C3)c2C(F)(F)F)c([2H])c1[2H]` on DGKα (Homo sapiens)?
**A:** ≥ 7.70
